Tested on: NCI/ADR-RES
run_description: NCI tumour cell line growth inhibition, 48 h
Activity calls are given as the source filed them. No stated cut-off is given here; in the data, active = GI50 up to about 1.1 µM and inactive = higher.
Hi there, use one of these labels in your reply, thanks! T = active, F = inactive

Answered cases to consult:
molecule	system_tested	class_label
CC1CC[C@@]2(OC1)OC1C[C@H]3[C@@H]4CC[C@H]5CC(OC6OC(CO)C(O)C(OC7OC(CO)C(OC8OC(CO)C(O)C(OC9OC(CO)C(O)C(O)C9O)C8OC8OC(CO)C(O)C(O)C8O)C(O)C7O)C6O)[C@H](O)CC5(C)[C@H]4CCC3(C)C1[C@@H]2C (stereo partly drawn)	NCI/ADR-RES	F
CC[C@]1(O)CC(OC2CC(N(C)C)C(O)C(C)O2)c2c(cc3c(c2O)C(=O)c2c(O)cccc2C3=O)[C@@H]1C(=O)OC (stereo partly drawn)	NCI/ADR-RES	T
COc1ccc(C(=O)/C=C/c2ccc(OCCCCCCCCCCOc3ccc(/C=C/C(=O)c4ccc(OC)cc4)cc3)cc2)cc1	NCI/ADR-RES	F
COC1C=COC2(C)Oc3c(C)c(O)c4c(O)c(c(C5SCCS5)c(O)c4c3C2=O)NC(=O)/C(C)=C\C=CC(C)C(O)C(C)C(O)C(C)C(OC(C)=O)C1C (stereo not drawn)	NCI/ADR-RES	F
CC(=O)OCC1OC(N2C(c3ccccc3)=CC(c3ccccc3)C(C#N)=C2S)C(OC(C)=O)C(OC(C)=O)C1OC(C)=O (stereo not drawn)	NCI/ADR-RES	F
Cc1ccc(S(=O)(=O)NNC(=O)Nc2ccc(Cl)cc2)cc1	NCI/ADR-RES	F
COc1cc(C(=O)N(C(=S)OCc2ccccn2)c2ccccc2)cc(OC)c1OC	NCI/ADR-RES	F
OCc1cccc(Nc2nc(O)c3[nH]cnc3n2)c1	NCI/ADR-RES	F

Assay outcome for C[n+]1ccc(Nc2ccc(NC(=O)c3ccc(Nc4cc[n+](C)c5ccc([N+](=O)[O-])cc45)cc3[N+](=O)[O-])cc2)cc1 : what was it?
F

And the next one, CC(=O)c1cccc(Nc2nc3ccc(Cl)cc3c3[nH]c4ccccc4c23)c1 ?
F

And the next one, O/N=C\c1cc(O)c(O)c(/C=N/O)c1 ?
F

And the next one, CSC(=O)/C=C1\SS/C(=C\C(=O)SC)S1 ?
F

And the next one, O=C1/C(=C/c2cccc(Br)c2)CSC/C1=C\c1cccc(Br)c1 ?
F

And the next one, Clc1ccc(C2C3COc4ccccc4C3=NN2c2ccccc2)cc1 (stereo not drawn) ?
F

And the next one, CC(=O)C(CN1CCCCC1)C(c1ccccc1)c1c(O)c2ccccc2oc1=O (stereo not drawn) ?
F

====

Assignment: determine reported GI50 for the given molecules.
Tested on: SK-MEL-28
run_description: NCI tumour cell line growth inhibition, 48 h
Activity calls are given as the source filed them. No stated cut-off is given here; in the data, active = GI50 up to about 1.1 µM and inactive = higher. Where a SMILES comes first, the peptide text is derived from it. The star is where a group is joined. Cbz = O=C(OCc1ccccc1)*; OBn = c1ccc(CO*)cc1

molecule	GI50
Cc1occ2c1C(=O)CC1C2[C@@H](O)CC2C(C)(C)CCC[C@]12C (stereo not given in full)	> 100 µM (inactive)
CCOC(=O)Cc1csc(Nc2ccccc2[N+](=O)[O-])n1	> 100 µM (inactive)
COc1cc(C(c2c(O)c3ccccc3oc2=O)c2c(O)c3ccccc3oc2=O)cc(Br)c1O	21.6 µM (inactive)
CN(CC(=O)O)CC(=O)O	> 100 µM (inactive)
COC(=O)C(Cc1ccc(O)cc1)NC(=O)C(CC(=O)OCc1ccccc1)NC(=O)OCc1ccccc1 (stereo not given) (Cbz-Asp(OBn)-Tyr-OMe; configuration not given here)	17.1 µM (inactive)

Batch request: GI50 per item, same order as input.
1. COc1cc2c(cc1O)NC(=O)[C@@H]1CCCN1C2=O
2. CC1=CC2C(O1)C1C(=O)C=CC(=O)C1=CC2[N+](=O)[O-] (stereo not given)
3. COc1ccc(CNC(=O)[C@H](Cc2ccc(O)cn2)NC(C)=O)cc1
4. CC(=O)c1ccc(-c2ccc(C(C)=O)s2)s1
5. C=CC(C)(C)C(=C)C(=O)Nc1ccccc1I

["> 100 µM (inactive)", "27.4 µM (inactive)", "> 100 µM (inactive)", "1.81 µM (inactive)", "> 100 µM (inactive)"]

====

System: SF-295
run_description: NCI tumour cell line growth inhibition, 48 h
Active and inactive are the calls of the source. Rule as the data show it: active = GI50 up to about 1.1 µM and inactive = higher.
test_readout: GI50

compound	GI50
O=C(/C=C\c1ccccc1O)c1ccc(O)cc1O	> 100 µM (inactive)
Cc1cc(OCc2nnc3n2S(=O)(=O)c2ccccc2N3C)ccc1Cl	18.8 µM (inactive)
O=C(/C=C/c1ccccc1)NC1C=Nc2ccc([N+](=O)[O-])cc2NC1=O (stereo unspecified)	30.3 µM (inactive)
CCOC(=O)C(C(=O)Cc1ccccc1)c1ccccc1 (stereo unspecified)	> 100 µM (inactive)
NC(CCCCNCc1ccccc1O)C(=O)O (stereo unspecified)	> 100 µM (inactive)

Batch request: GI50 per item, same order as input.
1. Nc1nc(=O)n(C2CC(O)C(CO)O2)c2nc(-c3ccc(-c4ccccc4)cc3)cnc12 (stereo unspecified)
2. COC(=O)C(Cc1ccccc1)NC(=O)Cn1ccnc1[N+](=O)[O-] (stereo unspecified)
3. CN(C)CCCc1cccc2[nH]c3c(c12)CN(C)CC3
4. COc1cc(C(=O)/C=C/c2ccc(OCC#N)cc2)cc(OC)c1OC

48.5 µM (inactive)
> 100 µM (inactive)
> 100 µM (inactive)
46.2 µM (inactive)

Batch request: GI50 per item, same order as input.
1. C/C(=C\c1ccccc1)C(=O)NCc1ccc(C(=O)NCCc2c[nH]c3ccccc23)cc1
2. CC(=O)c1cccc(Nc2nc3ccc(Cl)cc3c3[nH]c4ccccc4c23)c1

["> 100 µM (inactive)", "2.45 µM (inactive)"]

====

System: NCI-H460
run_description: NCI tumour cell line growth inhibition, 48 h
Active and inactive are the calls of the source. No stated cut-off is given here; in the data, active = GI50 up to about 1.1 µM and inactive = higher. Where a SMILES comes first, the peptide text is derived from it. The star is where a group is joined. Cbz = O=C(OCc1ccccc1)*
Assignment: determine reported GI50 for the given compounds.

Use these answered entries as a reference point.
compound	GI50
N#Cc1c(N)nc(S)c(C#N)c1-c1ccccc1	> 100 µM (inactive)
O=C1CCCN1CCC/N=c1/cc2n(-c3ccc(Cl)cc3)c3ccccc3nc-2cc1Nc1ccc(Cl)cc1	7.06 µM (inactive)
CC(C)(C)OC(=O)NC(Cc1ccc(OC(C)(C)C)cc1)C(=O)N[C@H]1CCC[C@H]1C(=O)NC(Cc1ccccc1)C(=O)N1CCCC1C(N)=O (stereo partly specified)	> 100 µM (inactive)
CCON1CC(C(=O)OC)=C(O)C1=O	> 100 µM (inactive)
N#CCCN(c1ccc(/C=C2\N=C(c3ccc(Cl)cc3)OC2=O)cc1)S(=O)(=O)c1ccccc1	> 100 µM (inactive)

Batch request: GI50 per item, same order as input.
1. Cc1cc(O)nc(NN2C(Cl)C(=O)C2c2cccc(Cl)c2)n1 (stereo unspecified)
2. Brc1ccc(-c2[nH]c3ccccc3c2/N=N\c2ccccc2)cc1
3. Cc1nc2ccc(S(=O)(=O)Nc3ccccc3)cc2c(=O)n1NC(=O)CNc1ccccc1
4. CCN(CC)c1cccc2c1C1(O)CCC3(CC21)OCCCCO3 (stereo unspecified)

1: 18.4 µM (inactive); 2: 17.1 µM (inactive); 3: > 100 µM (inactive); 4: 53.2 µM (inactive)

Batch request: GI50 per item, same order as input.
1. Cc1nc2ccccc2[s+]c1-c1cnc(NC#N)nc1C(=O)Nc1cccc(Cl)c1
2. COC(=O)C1C(C(=O)OC)C2(OC)c3ccccc3-c3ccccc3C12 (stereo unspecified)

1. > 100 µM (inactive)
2. 34.4 µM (inactive)

Batch request: GI50 per item, same order as input.
1. CCOC1OC(=O)c2cc3ccc4c(c3c(-c3ccc5c(c3)OCO5)c21)OCO4 (stereo unspecified)
2. Cc1cccc(NC(=O)CC(=O)N2N=C(N3c4ccccc4Sc4ccccc43)CC2c2ccccc2)c1 (stereo unspecified)
3. COCCCNC(=O)CC(=O)NCCCOC
4. COC(=O)C(CC(C)C)NC(=O)C(CCCNC(=N)N)NC(=O)OCc1ccccc1 (stereo not drawn) (Cbz-Arg-Leu-OMe; configuration not given here)
5. Cc1cccc(C(C)(C)C)c1NC(=O)CCc1n[nH]c(=S)o1
6. CCOC(=O)C(NC(=O)CC)(N1CCN(c2cc3c(cc2F)c(=O)c(C(=O)O)cn3C2CC2)CC1)C(F)(F)F (stereo unspecified)

1. 3.56 µM (inactive)
2. > 100 µM (inactive)
3. > 100 µM (inactive)
4. > 100 µM (inactive)
5. > 100 µM (inactive)
6. > 100 µM (inactive)

Batch request: GI50 per item, same order as input.
1. O=c1c2ccccc2[nH]c(=S)n1-c1ccc(Br)cc1
2. COc1c(Sc2c(SCSc3cnc4ccccc4c3Sc3cnc4ccccc4c3OC)cnc3ccccc23)cnc2ccccc12
3. O=C1NC2OC(CO)C(O)C(O1)C2O (stereo unspecified)
4. O=C1CCC(=O)N2CCCCN12

["42.9 µM (inactive)", "98.2 µM (inactive)", "> 100 µM (inactive)", "> 100 µM (inactive)"]

Where do the numbers come from? From ChEMBL document CHEMBL1201862.
